Provenance of the data: the RNAGym collection of RNA variant scans (doi:10.7554/elife.80360)

B1: HDV Ribozyme (parent)
chain: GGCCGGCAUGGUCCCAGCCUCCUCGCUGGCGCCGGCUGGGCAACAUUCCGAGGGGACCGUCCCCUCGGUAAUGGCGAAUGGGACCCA

Variants of: B1
ASSAY_SUMMARY: self-cleavage, relative activity (ratio to wild type); higher = more cleavage; co-transcriptional
QUANTITY_NAME: self-cleavage

mutations="U9G C84U" reported=0.831
mutations="G1C U47G" reported=0.128
mutations="U69A G80A" reported=0.434
mutations="G39U A56G" reported=0.659
mutations="C13U U47A" reported=0.646
mutations="A56U G73U" reported=0.415
mutations="C44A A78C" reported=0.0811
mutations="C14U G82A" reported=0.323
mutations="C22A C24A" reported=0.188
mutations="G38U A71G" reported=0.166
mutations="A8C C86G" reported=1.02
mutations="C75U A77U" reported=0.374
mutations="C24U G50C" reported=0.554
mutations="U46C C85A" reported=0.617
mutations="C22U G67U" reported=0.548
mutations="C36G C64G" reported=0.156
mutations="C4U C84A" reported=0.712
mutations="C3A A8C" reported=0.299
mutations="U20C C84A" reported=0.166
mutations="G29U G81C" reported=0.086
mutations="A71C G76C" reported=0.848
mutations="A16G A42C" reported=0.0755
mutations="G40C A42U" reported=0.151
mutations="U27G G55A" reported=0.806
mutations="U79C C84A" reported=0.462
mutations="C19A U23G" reported=0.0923
mutations="C66U C84A" reported=0.909
mutations="C3G C85G" reported=0.774
mutations="C14A G34A" reported=0.185
mutations="C24U G35U" reported=0.131
mutations="G1A G50U" reported=0.128
mutations="C36U C57U" reported=0.679
mutations="C30G U79G" reported=0.128
mutations="C21U U23C" reported=0.175
mutations="U65C C85U" reported=0.997
mutations="U37A C57U" reported=0.146
mutations="G38U G54C" reported=0.4
mutations="A45U A78U" reported=0.155
